For each of the compounds below, state its melting point.

Would you mind telling me what melting point value was observed for CC(C)Oc1ccc(CCCOc2cc(CCC(=O)O)n(Cc3ccccc3)n2)c(Oc2ncc(C(F)(F)F)cc2Cl)c1 ?
99 to 100 °C

Query: melting point; subject: CC(C)Oc1ccc(CCCOc2cc(CCC(=O)O)n(-c3ccccc3)n2)c(Oc2ccc(Cl)cc2Cl)n1
60 to 62 °C

Please look up its melting point: CC(C)n1nc(COc2ccccc2CC(=O)O)cc1OCc1ccc2ccccc2n1
116 to 117 °C

Any idea what melting point was measured for CCOc1cc(CCCOc2c(CC(=O)O)cccc2OC)n(Cc2ccc(Cl)cc2Cl)n1 ?
109 to 110 °C

Please look up its melting point: CC(C)Oc1ccc(CCCOc2cc(CCC(=O)O)n(-c3ccccc3)n2)c(Oc2ncc(C(F)(F)F)cc2Cl)c1
86 to 88 °C

What value of melting point has been reported for the following compound? O=C(O)CCc1cc(OCc2cc(COc3ccc(Cl)cc3Cl)cc(OCc3ccccc3)c2)nn1-c1ccccc1
126 to 130 °C

Name the recorded melting point for CC(C)c1cc(CCCOc2nn(C)cc2CC(=O)O)n(Cc2ccc(Cl)cc2Cl)n1 .
67 to 68 °C
